- Tested on: β-wrapin AS10
- assay_remarks: 1H-15N HSQC NMR detection of β-hairpin formation upon AS10 binding
- test_settings: 100 µM 15N-AS10 mixed with 20% molar excess of peptide, 25 °C, pH 7.4
readout: NMR signature of β-hairpin folding coupled to AS10 binding (1H–15N HSQC of 15N-AS10)

3-PGDH(298−319): synthetic peptide of predicted β-hairpin-forming amyloidogenic segment 298−319 of 3-PGDH (EIAVQFVDMVKGKSLTGVVNAQ; UniProt O43175 298-319, looked up, fragment)    no change
NBPF1(928−946): synthetic peptide of predicted β-hairpin-forming amyloidogenic segment 928−946 of NBPF1 (RSAFYILEQQRVGWALDMD)    no change
MIC26(153−178): synthetic peptide of predicted β-hairpin-forming amyloidogenic segment 153−178 of MIC26 (QQAIVFAQVSGERLYDWGLRGYIVIE; UniProt Q9BUR5 153-178, looked up, fragment)    no change
